Assay: Human HepG2 cell viability assay in 384 well format
Type: toxicity, cell-based
Parameters: dose 125 nL, time 70.5 hour; concentration not given beside the values
Settings: HepG2 cells, read-out: Inhibition
PARAMETER_MEASURED: cytotoxicity at 70.5 h (%)
The reply should contain only the number, in %.

Noted for CC(CC#N)N(C)Cc1ccc(F)cc1C#N (stereo unspecified) : its cytotoxicity at 70.5 h reads 11.9

Noted for COCCN(c1ccncc1)S(=O)(=O)c1cc(C)cc(F)c1 : its cytotoxicity at 70.5 h reads -10.7

Noted for CC(C)(C)NC(=O)c1cccc(CN2CCS(=O)(=O)CC2)c1 : its cytotoxicity at 70.5 h reads -4.97

Noted for CCOC(=O)C1CCN(CCCc2nnnn2-c2ccccc2)CC1 : its cytotoxicity at 70.5 h reads -3.5

Noted for CSCC[C@@H]1CN2CCC[C@H]2CN1Cc1cn(C)nc1C : its cytotoxicity at 70.5 h reads 19.2

Noted for CC(=O)N1CC2(CCN(C(=O)N(C)C)CC2)c2cc(C)ccc21 : its cytotoxicity at 70.5 h reads 5.58

Noted for N#Cc1cn(C2CC2)c(=O)n(Cc2ncc(-c3cccs3)o2)c1=O : its cytotoxicity at 70.5 h reads -13

Noted for O=C(O)c1c(-c2cccnc2)ncc2c1CCN(CC1CCOC1)C2 (stereo unspecified) : its cytotoxicity at 70.5 h reads 16.6

Noted for Cc1noc(C)c1-c1cc(C2CCNCC2)ccn1 : its cytotoxicity at 70.5 h reads 3.08

Noted for O=C1CC2(CCSC2)C(=O)N1Cc1coc(-c2cccc(F)c2)n1 (stereo unspecified) : its cytotoxicity at 70.5 h reads -2.41

Noted for Cc1csc(C(C)(C)NCC(=O)N(C)Cc2ccc(C)o2)n1 : its cytotoxicity at 70.5 h reads 4.78
